Each entry below lists one item and its recorded koff value.
Target: T1, Human OX40 protein (hOX40-His) (human, UniProt P43489 29-214)
T1 construct: Soluble analyte in the SPR assay; also called His-tagged human OX40; not shown: His tag
T1 sequence: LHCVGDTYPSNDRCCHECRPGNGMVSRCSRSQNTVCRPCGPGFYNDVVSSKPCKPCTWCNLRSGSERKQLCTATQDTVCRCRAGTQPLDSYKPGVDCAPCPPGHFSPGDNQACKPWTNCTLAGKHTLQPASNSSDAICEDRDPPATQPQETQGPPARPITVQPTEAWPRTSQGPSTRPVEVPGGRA
Test: SPR, Biacore T200, antibody captured on Protein A chip, hOX40-His as analyte, 1:1 Langmuir fit
REPORTED PROPERTY: koff (s⁻¹)

{"BINDER": "9H3-H2K3-IgG1 (antibody, V domains shown, Humanized, with human IgG1 constant domains; also called 9H3 humanized antibody H2K3) VH: QVQLVESGGGVVQPGRSLRISCAVSGFSLTSYGVLWVRQAPGKGLEWVAVIWSGGSTDYNAAFISRLTISRDNSKSTVYFQMNSLRAEDTAVYYCAREEFGYWGQGTLVTVSS VL: DIQMTQSPSSLSASVGDRVTITCRASQDINNYLNWYQQKPGGAVKLLIYYTSRLHSGVPSRFSGSGSGTDYTLTISSLQPEDIATYFCQQTNTLPWTFGGGTKLEIKR", "RESULT VALUE": 0.000393}
{"BINDER": "5D10-mHvKv-IgG1 (antibody, V domains shown, Chimeric: mouse 5D10 variable domains with human IgG1 constant domains; also called 5D10 chimeric antibody) VH: QVQLKESGPGLVAPSQSLSITCTVSGFSLTSYGVHWIRQPPGKGLEWLGVIWAGGNTNYNSALMSRLSISKDNSKSQVFLKMNSLQTDDTAMYNCASYDGYYGWFAYWGQGTLVTVSV VL: DIQMTQTTSSLSASLGDRVTISCRASQDISYYLNWYQQKPDGTVKLLIYYTSRLHSGVPSRFSGSGSGTDYSLTISNLEQEDIATYFCQQGHTLPWTFGGGTKLEIK", "RESULT VALUE": 0.0147}

Reference for the values: patent US20210206866A1
